Molecular target: HLA-A*26:01
Experiment: IEDB peptide-MHC binding, purified MHC/direct/fluorescence; filed as Kd, often an IC50 or EC50 that approximates it; bounds were set here for any values at or beyond the usual limits of such assays
Conditions: source organism: Influenza A virus(A/swine/Henan/5/2004(H9N2))
measure name: Kd

{"ordered residues": "YMFESKSMK", "val": "≥ 20 µM"}

---

Biological target: HLA-A*30:02
Assay: IEDB peptide-MHC binding, purified MHC/competitive/radioactivity; filed as Kd, often an IC50 or EC50 that approximates it; bounds were set here for any values at or beyond the usual limits of such assays
Settings: source organism: Triticum aestivum
pKd: −log10 of the molar value.

{"ordered residues": "SFQQPQQQY", "system tested": "HLA-A*30:02", "pKd": "≤ 4.20"}

---

Target: HLA-B*39:01
Assay: IEDB peptide-MHC binding, purified MHC/competitive/fluorescence; filed as Kd, often an IC50 or EC50 that approximates it; bounds were set here for any values at or beyond the usual limits of such assays
Conditions: source organism: Vaccinia virus
pKd: −log10 of the molar value.

{"ordered residues": "RVATENIAV", "pKd": 5.55}

---

Molecular target: HLA-A*02:11
Test: IEDB peptide-MHC binding, purified MHC/direct/fluorescence; filed as Kd, often an IC50 or EC50 that approximates it; bounds were set here for any values at or beyond the usual limits of such assays
Details: source organism: Listeria monocytogenes serotype 4b str. H7858
measure name: Kd

{"ordered residues": "FRDEAGAIL", "measure name": "Kd", "val": "≥ 20 µM"}

---

Target: HLA-B*15:09
Experiment: IEDB peptide-MHC binding, purified MHC/competitive/fluorescence; filed as Kd, often an IC50 or EC50 that approximates it; bounds were set here for any values at or beyond the usual limits of such assays
Conditions: source organism: Francisella tularensis subsp. tularensis FSC198
pKd: −log10 of the molar value.

{"ordered residues": "REMGIVDLL", "pKd": "≤ 4.70"}

---

Target: HLA-B*08:01
Assay: IEDB peptide-MHC binding, purified MHC/competitive/radioactivity; filed as Kd, often an IC50 or EC50 that approximates it; bounds were set here for any values at or beyond the usual limits of such assays
Settings: source organism: Dengue virus 3 Sri Lanka/1266/2000
measure name: Kd (nM)

{"ordered residues": "YQLWTALVSL", "system tested": "HLA-B*08:01", "val": 974}

---

Target: HLA-B*08:01
Experiment: IEDB peptide-MHC binding, purified MHC/competitive/fluorescence; filed as Kd, often an IC50 or EC50 that approximates it; bounds were set here for any values at or beyond the usual limits of such assays
Conditions: source organism: Yersinia pestis Nepal516
pKd: −log10 of the molar value.

{"ordered residues": "LPFLKSLAI", "system tested": "HLA-B*08:01", "pKd": 6.98}

---

Target: HLA-B*27:05
Experiment: IEDB peptide-MHC binding, purified MHC/direct/fluorescence; filed as Kd, often an IC50 or EC50 that approximates it; bounds were set here for any values at or beyond the usual limits of such assays
Conditions: source organism: Yersinia pestis

{"ordered residues": "QWSPGPGRL", "Kd": "≥ 20 µM"}
{"ordered residues": "YGLGSTPLY", "Kd": "≥ 20 µM"}

---

Biological target: HLA-B*08:01
Test: IEDB peptide-MHC binding, purified MHC/competitive/radioactivity; filed as Kd, often an IC50 or EC50 that approximates it; bounds were set here for any values at or beyond the usual limits of such assays
Settings: source organism: Hepacivirus hominis

{"ordered residues": "HSKRKCDEL", "Kd": "≥ 77.6 µM"}

---

Biological target: HLA-B*35:01
Test: IEDB peptide-MHC binding, purified MHC/direct/fluorescence; filed as Kd, often an IC50 or EC50 that approximates it; bounds were set here for any values at or beyond the usual limits of such assays
Conditions: source organism: Giardia lamblia ATCC 50803

{"ordered residues": "RHIAIQVCY", "Kd": "1190 nM"}

---

Target: HLA-A*03:01
Test: IEDB peptide-MHC binding, purified MHC/competitive/radioactivity; filed as Kd, often an IC50 or EC50 that approximates it; bounds were set here for any values at or beyond the usual limits of such assays
Details: source organism: Lymphocytic choriomeningitis virus (strain Armstrong)
pKd: −log10 of the molar value.
measure name: pKd

{"ordered residues": "NYSKFWYLEH", "measure name": "pKd", "val": "≤ 4.15"}
{"ordered residues": "NSESLSLISH", "measure name": "pKd", "val": "≤ 4.63"}

---

Target: HLA-B*08:02
Test: IEDB peptide-MHC binding, purified MHC/direct/fluorescence; filed as Kd, often an IC50 or EC50 that approximates it; bounds were set here for any values at or beyond the usual limits of such assays
Details: source organism: Ravn virus - Ravn, Kenya, 1987
pKd: −log10 of the molar value.
measure name: pKd

{"ordered residues": "FIYFGKKQY", "val": "≤ 4.70"}

---

Target: HLA-B*51:01
Test: IEDB peptide-MHC binding, purified MHC/direct/fluorescence; filed as Kd, often an IC50 or EC50 that approximates it; bounds were set here for any values at or beyond the usual limits of such assays
Settings: source organism: Influenza A virus (A/duck/Hokkaido/1130/01(H1N1))
pKd: −log10 of the molar value.
measure name: pKd

{"ordered residues": "ELRSRYWAI", "system tested": "HLA-B*51:01", "measure name": "pKd", "val": "≤ 4.70"}

---

Target: HLA-B*57:01
Experiment: IEDB peptide-MHC binding, purified MHC/direct/fluorescence; filed as Kd, often an IC50 or EC50 that approximates it; bounds were set here for any values at or beyond the usual limits of such assays
Details: source organism: Corynebacterium diphtheriae
measure name: Kd

{"ordered residues": "VERRLVKVL", "system tested": "HLA-B*57:01", "val": "≥ 20 µM"}

---

Target: HLA-A*02:01
Assay: IEDB peptide-MHC binding, purified MHC/competitive/fluorescence; filed as Kd, often an IC50 or EC50 that approximates it; bounds were set here for any values at or beyond the usual limits of such assays
Settings: source organism: Entamoeba dispar SAW760
pKd: −log10 of the molar value.

{"ordered residues": "LVGNTLTTC", "system tested": "HLA-A*02:01", "pKd": "≤ 4.70"}
{"ordered residues": "FELLHFISS", "system tested": "HLA-A*02:01", "pKd": "≤ 4.70"}

---

Molecular target: HLA-B*40:01
Assay: IEDB peptide-MHC binding, purified MHC/direct/fluorescence; filed as Kd, often an IC50 or EC50 that approximates it; bounds were set here for any values at or beyond the usual limits of such assays
Details: source organism: Influenza A virus (A/Hong Kong/507/97(H5N1))

{"ordered residues": "GTSKIKMKW", "Kd": "≥ 20 µM"}

---

Target: HLA-A*31:01
Assay: IEDB peptide-MHC binding, purified MHC/direct/fluorescence; filed as Kd, often an IC50 or EC50 that approximates it; bounds were set here for any values at or beyond the usual limits of such assays
Conditions: source organism: Influenza A virus (A/swine/Korea/S190/2004(H9N2))

{"ordered residues": "IPKRNRSIL", "Kd": "≥ 20 µM"}

---

Target: HLA-A*03:01
Assay: IEDB peptide-MHC binding, purified MHC/direct/fluorescence; filed as Kd, often an IC50 or EC50 that approximates it; bounds were set here for any values at or beyond the usual limits of such assays
Details: source organism: Influenza A virus (A/Hong Kong/507/97(H5N1))
pKd: −log10 of the molar value.
measure name: pKd

{"ordered residues": "GTSKIKMKW", "val": "≤ 4.70"}

---

Target: HLA-A*69:01
Experiment: IEDB peptide-MHC binding, purified MHC/direct/fluorescence; filed as Kd, often an IC50 or EC50 that approximates it; bounds were set here for any values at or beyond the usual limits of such assays
Details: source organism: dengue virus type 3
pKd: −log10 of the molar value.

{"ordered residues": "ILTDGPERV", "pKd": "≤ 4.70"}

---

Biological target: HLA-B*27:05
Test: IEDB peptide-MHC binding, purified MHC/direct/fluorescence; filed as Kd, often an IC50 or EC50 that approximates it; bounds were set here for any values at or beyond the usual limits of such assays
Conditions: source organism: Haemophilus influenzae
pKd: −log10 of the molar value.

{"ordered residues": "IMDEPTSSL", "system tested": "HLA-B*27:05", "pKd": "≤ 4.70"}

---

Molecular target: HLA-B*39:01
Assay: IEDB peptide-MHC binding, purified MHC/competitive/fluorescence; filed as Kd, often an IC50 or EC50 that approximates it; bounds were set here for any values at or beyond the usual limits of such assays
Settings: source organism: Giardia lamblia ATCC 50803

{"ordered residues": "FMKVKFEAL", "Kd": "≥ 20 µM"}
{"ordered residues": "KVSWRWMVY", "Kd": "≥ 20 µM"}
